Experiment: yeast display, Sf9 membrane polyspecificity reagent, FACS + sequencing; frameworks hold sequencing errors

# Sequence Record, polyreactivity (PSR sort gate)
records = [
    ("QVQLVESGGGLVQAGGSLRLSCAASGSTFFRYAMGWYRQAPGKERELVAAISKSGASTYYADSVKGRFTISRDNAKNTVYLQMNSLKPEDTAVYYCNADVKKSSAREWQYGYDYWGQGTQVTVSS", "low polyreactivity"),
    ("QVQLVESGGGLVQAGGSLRLSCAASGRTFKFYAMGWYRQAPGKERELVAAITSDGSTYYADSVKGRFTISRDNAKNTVYLQMNSQKPEDTAVYYCAKRSNTGRGYDYWGQGTQVTVSS", "high polyreactivity"),
    ("QDQLVESGGGLVQAGGSLRLSCAASGSTFPDYAMGWYRQAPGKERELVAAISRSGGRTYYADSVKGRFTISRDNAKNTVYLQMNSLKPDDTAVYYCATSRVRSAGRDYWGQGTQVTVSS", "high polyreactivity"),
    ("QVQLVESGGGLVQAGGSLRLSCAASGFTFIFNAMGWNRQAPGKERELVATISSGGSTYYADSVKGRFTISRDNAKNTVYLQMNSLKPEDTAVYYCNTDDVGGYDYWGQGTQVTLSS", "low polyreactivity"),
    ("IILPGGRILLSCAASGRTFSGYGLGWYRQAPVKERELIADITSGGSTYYADSVKGRFTISRDNAKNTVYLQMNILIPVDTAVYYCAAERQIRSFWSSRTYEFGYWGQGTQVNVSS", "low polyreactivity"),
]

* * *

Test: yeast display, Sf9 membrane polyspecificity reagent, FACS + sequencing; frameworks hold sequencing errors

# Sequence Record, polyreactivity (PSR sort gate)
records = [
    ("QVQLVESGGGLVQAGGSLRLICAASGFTIYRYAMGWYRQAPGKERELVATIRRGGSTKYADSVKGRFTISRDNAKNTVYLQMNSLKPEDTAVYYCNARYYAAPDKYYYWGQGTQVTVSS", "low polyreactivity"),
    ("QFQLVESGGGLVQAGGSLRLSCAASGRTFYLYAMGWYRQAPGKERELVASISWNGGSTYYADSVKGLFTISRDNAKNYVYLQMNSLKPEDTAVYYCATDSHRSRLNRPYQLFPAYYYWGQGTQVTVSS", "low polyreactivity"),
    ("QVQLVESCGGLVQAGGSLRLSCAASGIIFSVNAMGWSRQAPGKERELVAAITIGGSTYYADSVKGRFTISRDNAKNTVYLQMNSLKPEDTAVYYCAADEYGPHTFSPESDSWGQGTQVTVSS", "low polyreactivity"),
    ("QVQLVESGGGLVQAGGSLRLSCAASGRIFQGNAMGWYRQATGKERELVAAITTSGGSTYYADSVKGRFTISRDNAKNTVYLQMNSLKPEDTAVYYCNVDPRKRSYDYWGQGTQVTVSS", "high polyreactivity"),
    ("QVQLVESGGGLVKAGGSLRLSCAASGSIFRYYAMGWYRQAPGKERELVASITNGGSTNYADSVKGRFTISRDNAKNTVYLQMNSLKPEDTAVYYCAARYLYYTPPPRRYYYWAQGTQVTVSS", "high polyreactivity"),
    ("QVQLVESGGGLVQAGGSLRLSCAASGRTFHVYARGWYRQAPGKERELVAAISGRTGSTYYADSVKGRFTISRDNAKNTVYLQMNSLKPEDTAVYYCAARRWSHGTGYGSWGQGTQVTVSS", "high polyreactivity"),
    ("QFQLVESGGGVVQAGGSLRLSCAASGYTFYIYARGWYRQAPWKERELVAAISWTDGSTYYADSVKGRFTISRDNAKNTVYLQMNSLKPEDTAVYYCAKTSLYAGAKEYDYWGQGTQVTVSS", "low polyreactivity"),
    ("QVQVVESGGGFVQAGGSLRVSCAASGSTFRANAMGCYTQAPGKERELVAAISQSGGITYYADSVKGRFTISRDIAKNTVYLQMNSLKPEDTAVYYCAAKIALDNDYWGQGTQVTVSS", "high polyreactivity"),
    ("QVQLVESGGGLVQAGGSLRLSCAASGSIFVLYAMGWYRQAPGKERELVAAIDFGGGSTYYADSVKGRFTISRDNAKNTVYLQMNSLKPEYTAVYYCAAELYYTYRWYDYWGQGTQVTVSS", "high polyreactivity"),
    ("QVQLVESGGGLVQAGGSLRLSCAASGRTFGSNAMGWYRQAPGKERELVAAITSSADSTYYADSVKGRFTISRDNAKNTVYLQMNSLKPEDTAVYYCATDQGGYYENDYWGQGTQVTVSS", "low polyreactivity"),
    ("QVQLVESGGGLVQAGGSLRLSCAASGFIFFKYVMGWYRQAPGKERELVAAISTTGGRTYYADSVKGRFTISRDNAKNTVYLQMNSLKPEDTAVYYCAADYPVWNHGFDYWGQGTQVTVSS", "high polyreactivity"),
]
